biological target: σ1 receptor (Cavia porcellus, UniProt Q60492); assay: biochemical; conditions: Ki ± SEM σ1
Sequence (Q60492 whole entry): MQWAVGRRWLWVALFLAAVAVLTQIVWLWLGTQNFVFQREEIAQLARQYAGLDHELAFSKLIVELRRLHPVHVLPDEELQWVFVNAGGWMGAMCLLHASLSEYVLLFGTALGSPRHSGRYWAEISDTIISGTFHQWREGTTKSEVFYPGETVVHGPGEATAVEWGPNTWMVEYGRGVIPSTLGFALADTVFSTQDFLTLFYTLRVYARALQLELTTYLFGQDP
pKi: −log10 of the molar value.
Mark t for reported pKi of 7 or greater; mark f for anything smaller.

QUERY: Answer whether pKi of c1ccc(CNCCCC[C@H]2CCO[C@@H](c3ccccc3)O2)cc1 (relative stereo) [17a] is greater than or equal to 7.
RESULT: t

QUERY: Reported pKi reaches at least 7 for NCCCC[C@H]1CCO[C@@H](c2ccccc2)O1 (relative stereo) [14a] ?
RESULT: f

QUERY: Could you verify whether the entry CC[C@]1(c2ccccc2)OCC[C@H](CCCCNCc2ccccc2)O1 (relative stereo) [17b] shows pKi of no less than 7?
RESULT: t

QUERY: Determine whether this compound has pKi no lower than 7: CNCCCC[C@H]1CCO[C@@H](c2ccccc2)O1 (relative stereo) [16a]
RESULT: f

QUERY: Quick check: does CC[C@]1(c2ccccc2)OCC[C@H](CCCCN(C)Cc2ccccc2)O1 (relative stereo) [18b] have pKi greater than or equal to 7?
RESULT: t

====

The following are reported IC50 results, target or system UniProtKB Q60492.

QUERY: Fill in: IC50 of CC[C@]1(c2ccccc2)OCC[C@H](CCCCN)O1 (relative stereo) [14b] is ___
RESULT: > 1 µM

QUERY: Request the reported IC50 associated with NCCCC[C@H]1CCO[C@@H](c2ccccc2)O1 (relative stereo) [14a]
RESULT: > 1 µM

====

target: σ1 receptor (Cavia porcellus, UniProt Q60492); experiment: biochemical; conditions: Ki ± SEM σ1
pKi: −log10 of the molar value.
Short version: pKi at least 7 is condition met, less is condition not met.

QUERY: Confirm if pKi reported for the compound NC(CCC[C@H]1CCO[C@@H](c2ccccc2)O1)c1ccccc1 (relative stereo) [24a] is 7 or above.
RESULT: condition not met

QUERY: Could you tell me if the measured pKi of CC[C@]1(c2ccccc2)OCC[C@H](CCCCN)O1 (relative stereo) [14b] reaches 7 or more?
RESULT: condition not met

QUERY: Hi team, for CN(CCCC[C@H]1CCO[C@@H](c2ccccc2)O1)Cc1ccccc1 (relative stereo) [18a] , is the recorded pKi at or above 7?
RESULT: condition met

QUERY: Entry CCC1(c2ccccc2)OCCC(CCCC(NC)c2ccccc2)O1 (stereo not drawn) [25b] : is its pKi no less than 7?
RESULT: condition met

QUERY: Check the entry CCC1(c2ccccc2)OCCC(CCCC(N)c2ccccc2)O1 (stereo not drawn) [24b] : does pKi equal or exceed 7?
RESULT: condition not met

QUERY: Identify whether the reported pKi of the following compound is 7 or greater: CC[C@]1(c2ccccc2)OCC[C@H](CCCCN2CCCC2)O1 (relative stereo) [19b]
RESULT: condition met

QUERY: Kindly determine if pKi recorded for CCC1(c2ccccc2)OCCC(CCCC(c2ccccc2)N2CCCC2)O1 (stereo not drawn) [27b] is above or exactly 7.
RESULT: condition met

QUERY: Dear colleague, could you confirm whether c1ccc(CNC(CCC[C@H]2CCO[C@@H](c3ccccc3)O2)c2ccccc2)cc1 (relative stereo) [26a] has pKi at or above 7?
RESULT: condition not met

====

target: σ1 receptor (Cavia porcellus, UniProt Q60492); assay: biochemical; details: pKi(σ1)
For each record, write down the corresponding Ki.
Kindly answer with a numeric value in nM, unit omitted.

QUERY: For the compound shown here, CCC1(c2ccccc2)OCCC(CCCC(c2ccccc2)N2CCCC2)O1 (centres unmarked) [27b] , give the reported Ki.
RESULT: 19.1

QUERY: Consider the compound shown here: CC[C@]1(c2ccccc2)OCC[C@H](CCCCNCc2ccccc2)O1 (relative stereo) [17b] What is its recorded Ki?
RESULT: 14.1

QUERY: Please look up its Ki: CC[C@]1(c2ccccc2)OCC[C@H](CCCCN2CCCC2)O1 (relative stereo) [19b]
RESULT: 56.2

QUERY: Ki for c1ccc(C(CCC[C@H]2CCO[C@@H](c3ccccc3)O2)N2CCCC2)cc1 (relative stereo) [27a] ?
RESULT: 162

QUERY: I'd like to know its Ki. The compound in question is CC[C@]1(c2ccccc2)OCC[C@H](CCCCN(C)Cc2ccccc2)O1 (relative stereo) [18b]
RESULT: 8.71

QUERY: What value of Ki has been reported for the following compound? c1ccc(CNCCCC[C@H]2CCO[C@@H](c3ccccc3)O2)cc1 (relative stereo) [17a]
RESULT: 30.9

QUERY: # input compound: c1ccc([C@@H]2OCC[C@H](CCCCN3CCCC3)O2)cc1 (relative stereo) [19a] ; wanted: its Ki
RESULT: 155

QUERY: So what's the measured Ki for this one? CN(CCCC[C@H]1CCO[C@@H](c2ccccc2)O1)Cc1ccccc1 (relative stereo) [18a]
RESULT: 6.31

====

molecular target: σ1 receptor (Cavia porcellus)
TEST READOUT: LLE (ligand-lipophilicity efficiency)

QUERY: Fill blank: measured LLE (ligand-lipophilicity efficiency) of the molecule CN(CCCC[C@H]1CCO[C@@H](c2ccccc2)O1)Cc1ccccc1 (relative stereo) [18a] is ____.
RESULT: 5.71

QUERY: LLE (ligand-lipophilicity efficiency) lookup needed for CC[C@]1(c2ccccc2)OCC[C@H](CCCCNCc2ccccc2)O1 (relative stereo) [17b] , thanks.
RESULT: 5.20

QUERY: Report LLE (ligand-lipophilicity efficiency) for CCC1(c2ccccc2)OCCC(CCCC(c2ccccc2)N2CCCC2)O1 (stereo not shown) [27b] please.
RESULT: 4.39

QUERY: Query (molecule): c1ccc([C@@H]2OCC[C@H](CCCCN3CCCC3)O2)cc1 (relative stereo) [19a] ; field requested: LLE (ligand-lipophilicity efficiency)
RESULT: 6.72

====

assay: physchem; conditions: pH 7.4
Threshold 3: logD strictly smaller gives met, otherwise not met.

QUERY: Given c1ccc([C@@H]2OCC[C@H](CCCCN3CCCC3)O2)cc1 (relative stereo) [19a] , is recorded logD strictly lower than 3?
RESULT: met

QUERY: In the record for CC[C@]1(c2ccccc2)OCC[C@H](CCCCNCc2ccccc2)O1 (relative stereo) [17b] , is logD less than 3?
RESULT: met

QUERY: Is the reported logD for CCC1(c2ccccc2)OCCC(CCCC(c2ccccc2)N2CCCC2)O1 (centres unmarked) [27b] strictly below 3?
RESULT: not met

QUERY: # strict comparison: is reported logD < 3? input = c1ccc(C(CCC[C@H]2CCO[C@@H](c3ccccc3)O2)N2CCCC2)cc1 (relative stereo) [27a]
RESULT: met

QUERY: Please state whether logD is below 3 for CC[C@]1(c2ccccc2)OCC[C@H](CCCCN(C)Cc2ccccc2)O1 (relative stereo) [18b]
RESULT: not met

QUERY: Is logD of c1ccc(CNCCCC[C@H]2CCO[C@@H](c3ccccc3)O2)cc1 (relative stereo) [17a] strictly below 3?
RESULT: met

QUERY: Hello, is logD of the following molecule strictly smaller than 3? CN(CCCC[C@H]1CCO[C@@H](c2ccccc2)O1)Cc1ccccc1 (relative stereo) [18a]
RESULT: met

QUERY: Item CC[C@]1(c2ccccc2)OCC[C@H](CCCCN2CCCC2)O1 (relative stereo) [19b] : logD beneath 3, strictly?
RESULT: met

====

molecular target: ifenprodil binding site of NMDA receptors with GluN2B subunit (Homo sapiens, UniProt Q05586+Q13224); construct: expressed in transfected cells; host or cells: mouse L(tk-) cells, stably transfected, expression induced with dexamethasone; membrane homogenate; experiment: biochemical
Sequence (Q13224 27-1484, other chains not shown): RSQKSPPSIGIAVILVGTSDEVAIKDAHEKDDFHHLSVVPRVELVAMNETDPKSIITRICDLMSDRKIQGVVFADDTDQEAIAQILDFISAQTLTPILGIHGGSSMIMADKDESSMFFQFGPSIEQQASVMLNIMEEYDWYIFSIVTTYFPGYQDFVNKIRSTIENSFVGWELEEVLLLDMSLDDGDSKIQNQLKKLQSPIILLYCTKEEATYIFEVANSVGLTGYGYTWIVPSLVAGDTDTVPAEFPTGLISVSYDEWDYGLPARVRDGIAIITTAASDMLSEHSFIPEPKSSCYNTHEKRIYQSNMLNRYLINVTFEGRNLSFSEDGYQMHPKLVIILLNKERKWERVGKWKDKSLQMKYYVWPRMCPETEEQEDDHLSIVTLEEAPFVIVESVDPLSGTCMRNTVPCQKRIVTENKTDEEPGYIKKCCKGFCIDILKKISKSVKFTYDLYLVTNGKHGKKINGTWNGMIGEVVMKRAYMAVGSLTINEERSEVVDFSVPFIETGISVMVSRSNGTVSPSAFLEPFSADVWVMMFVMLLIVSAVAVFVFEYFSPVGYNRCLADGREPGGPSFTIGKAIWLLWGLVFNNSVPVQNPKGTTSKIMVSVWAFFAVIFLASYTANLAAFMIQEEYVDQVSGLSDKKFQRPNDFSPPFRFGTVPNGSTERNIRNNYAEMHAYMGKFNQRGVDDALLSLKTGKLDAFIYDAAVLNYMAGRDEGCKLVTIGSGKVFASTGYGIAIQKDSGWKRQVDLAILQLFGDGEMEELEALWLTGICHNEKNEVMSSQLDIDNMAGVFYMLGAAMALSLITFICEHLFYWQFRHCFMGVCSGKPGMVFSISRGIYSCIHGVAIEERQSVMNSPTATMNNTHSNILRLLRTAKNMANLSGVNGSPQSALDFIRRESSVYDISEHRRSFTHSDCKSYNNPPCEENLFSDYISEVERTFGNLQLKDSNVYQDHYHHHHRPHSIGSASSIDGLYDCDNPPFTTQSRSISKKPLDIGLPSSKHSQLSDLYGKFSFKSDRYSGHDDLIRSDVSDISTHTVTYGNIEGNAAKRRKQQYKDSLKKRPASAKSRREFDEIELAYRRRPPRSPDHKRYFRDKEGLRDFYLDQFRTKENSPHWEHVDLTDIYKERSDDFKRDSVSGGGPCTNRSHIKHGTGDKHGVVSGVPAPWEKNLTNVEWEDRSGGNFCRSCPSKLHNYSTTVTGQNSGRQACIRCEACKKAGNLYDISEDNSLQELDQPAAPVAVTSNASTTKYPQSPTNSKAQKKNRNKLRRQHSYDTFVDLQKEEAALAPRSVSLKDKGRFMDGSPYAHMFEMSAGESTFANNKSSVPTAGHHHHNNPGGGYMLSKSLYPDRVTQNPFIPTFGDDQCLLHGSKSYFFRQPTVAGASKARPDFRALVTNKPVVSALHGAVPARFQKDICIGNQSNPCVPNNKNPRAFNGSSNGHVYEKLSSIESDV
Please provide measured pKi for the entries that follow.
Reminder that pKi means the negative base-10 logarithm of the concentration expressed in mol/L.

QUERY: # query: pKi of entry CC[C@]1(c2ccccc2)OCC[C@H](CCCCN2CCCC2)O1 (relative stereo) [19b]
RESULT: 7.17

QUERY: Fill in the blank: the reported pKi of CC[C@]1(c2ccccc2)OCC[C@H](CCCCN(C)Cc2ccccc2)O1 (relative stereo) [18b] is ____.
RESULT: 7.70

QUERY: Param item = CC[C@]1(c2ccccc2)OCC[C@H](CCCCNCc2ccccc2)O1 (relative stereo) [17b] ; retrieve measured pKi.
RESULT: 7.41

QUERY: What pKi value was documented for this compound, CCC1(c2ccccc2)OCCC(CCCC(c2ccccc2)N2CCCC2)O1 (stereo not shown) [27b] ?
RESULT: 7.20

====

molecular target: ifenprodil binding site of NMDA receptors with GluN2B subunit (Homo sapiens, UniProt Q05586+Q13224); construct: expressed in transfected cells; host or cells: mouse L(tk-) cells, stably transfected, expression induced with dexamethasone; membrane homogenate; test: biochemical; details: read-out: Ki ± SEM GluN2B
TEST READOUT: pKi
Schema: pKi number; meaning minus log10 of the concentration expressed in molar units.

QUERY: Reported pKi for c1ccc(C(CCC[C@H]2CCO[C@@H](c3ccccc3)O2)N2CCCC2)cc1 (relative stereo) [27a] : what is it?
RESULT: 6.44

QUERY: Look at this compound and give its reported pKi. CCC1(c2ccccc2)OCCC(CCCC(N)c2ccccc2)O1 (centres unmarked) [24b]
RESULT: 6.87

QUERY: Entry under review: CCC1(c2ccccc2)OCCC(CCCC(NC)c2ccccc2)O1 (centres unmarked) [25b] . Reported pKi?
RESULT: 6.72

QUERY: For CN(CCCC[C@H]1CCO[C@@H](c2ccccc2)O1)Cc1ccccc1 (relative stereo) [18a] , what is its reported pKi?
RESULT: 6.58

QUERY: Any idea what its pKi is? The compound is CCC1(c2ccccc2)OCCC(CCCC(NCc2ccccc2)c2ccccc2)O1 (centres unmarked) [26b]
RESULT: 6.59

QUERY: # input compound: NC(CCC[C@H]1CCO[C@@H](c2ccccc2)O1)c1ccccc1 (relative stereo) [24a] ; wanted: its pKi
RESULT: 5.87

QUERY: I am curious: what pKi value has been reported for CNC(CCC[C@H]1CCO[C@@H](c2ccccc2)O1)c1ccccc1 (relative stereo) [25a] ?
RESULT: 6.15
